Taken from patent US11046684B2.

Measured IC50 values are reported for all entries that follow.
Target: FGFR2 kinase recombinant protein (Homo sapiens, UniProt P21802)
Sequence (P21802 22-821): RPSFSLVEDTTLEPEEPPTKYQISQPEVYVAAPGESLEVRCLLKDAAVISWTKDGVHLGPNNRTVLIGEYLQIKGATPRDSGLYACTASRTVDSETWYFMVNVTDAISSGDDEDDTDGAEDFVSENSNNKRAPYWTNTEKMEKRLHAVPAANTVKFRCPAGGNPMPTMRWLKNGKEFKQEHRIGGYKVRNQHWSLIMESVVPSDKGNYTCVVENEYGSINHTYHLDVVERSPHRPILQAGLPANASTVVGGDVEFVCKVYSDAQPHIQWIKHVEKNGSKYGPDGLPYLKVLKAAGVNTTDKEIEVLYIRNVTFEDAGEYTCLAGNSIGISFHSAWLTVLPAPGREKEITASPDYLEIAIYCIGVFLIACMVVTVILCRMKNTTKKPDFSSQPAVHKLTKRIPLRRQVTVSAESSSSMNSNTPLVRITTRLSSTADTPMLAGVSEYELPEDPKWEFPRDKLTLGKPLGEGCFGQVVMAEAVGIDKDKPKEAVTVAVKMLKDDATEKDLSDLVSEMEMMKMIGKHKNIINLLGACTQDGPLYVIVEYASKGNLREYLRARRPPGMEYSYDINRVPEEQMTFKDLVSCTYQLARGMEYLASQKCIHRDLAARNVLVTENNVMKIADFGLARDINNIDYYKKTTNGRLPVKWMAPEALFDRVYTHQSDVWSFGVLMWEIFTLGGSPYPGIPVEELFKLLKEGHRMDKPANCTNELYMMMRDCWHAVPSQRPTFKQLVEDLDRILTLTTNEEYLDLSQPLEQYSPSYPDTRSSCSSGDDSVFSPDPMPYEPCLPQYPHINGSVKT
Experiment: Inhibition of FGFR kinase activity, ADP-Glo method
Condition notes: 30 min preincubation

C#CCCCNc1cc(NC(=O)N2CCCc3cc(CN4CCN(C)CC4=O)c(C=O)nc32)ncc1C#N | > 1 µM
C#CCCNc1cc(NC(=O)N2CCCc3cc(CN4CCOCC4=O)c(C=O)nc32)ncc1C#N | > 1 µM
C#CCNc1cc(NC(=O)N2CCCc3cc(CN4CCN(C)CC4=O)c(C=O)nc32)ncc1C#N | > 1 µM
C#CCCNc1cc(NC(=O)N2CCCc3cc(CN4CCN(C)CC4=O)c(C=O)nc32)ncc1C#N | > 1 µM

Here's the next entry for you.
The reported IC50 of the compound [2H]C([2H])([2H])N1CCN(Cc2cc3c(nc2C=O)N(C(=O)Nc2cc(NCCC#C)c(C#N)cn2)CCC3)C(=O)C1 was > 1 µM

====

Target: FGFR4 kinase recombinant protein (Homo sapiens, UniProt P22455)
Sequence (P22455 22-802): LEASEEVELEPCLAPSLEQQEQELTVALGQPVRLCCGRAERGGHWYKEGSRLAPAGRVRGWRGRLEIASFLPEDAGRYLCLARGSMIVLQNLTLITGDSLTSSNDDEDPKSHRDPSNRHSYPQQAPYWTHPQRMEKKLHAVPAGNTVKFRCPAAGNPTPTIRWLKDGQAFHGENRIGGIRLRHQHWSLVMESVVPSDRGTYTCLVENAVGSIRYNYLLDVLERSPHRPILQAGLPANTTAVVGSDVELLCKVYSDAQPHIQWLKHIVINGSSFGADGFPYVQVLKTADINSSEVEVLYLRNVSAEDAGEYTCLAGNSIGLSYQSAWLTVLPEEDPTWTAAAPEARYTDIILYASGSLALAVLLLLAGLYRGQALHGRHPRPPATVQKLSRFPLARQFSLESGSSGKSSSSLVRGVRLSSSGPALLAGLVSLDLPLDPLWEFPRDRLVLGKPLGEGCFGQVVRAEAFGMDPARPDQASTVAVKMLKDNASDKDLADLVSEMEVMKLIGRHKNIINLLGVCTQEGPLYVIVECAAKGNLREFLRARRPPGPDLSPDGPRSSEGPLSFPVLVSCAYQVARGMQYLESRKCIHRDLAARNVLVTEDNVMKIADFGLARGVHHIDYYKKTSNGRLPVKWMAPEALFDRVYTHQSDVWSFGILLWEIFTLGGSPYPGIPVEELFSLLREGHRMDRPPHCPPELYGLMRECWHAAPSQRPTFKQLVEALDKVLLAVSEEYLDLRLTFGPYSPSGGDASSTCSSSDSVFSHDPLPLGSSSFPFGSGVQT
Experiment: Inhibition of FGFR kinase activity, ADP-Glo method
Condition notes: 30 min preincubation
Quantity measured: IC50 (nM)

C#CCCNc1cc(NC(=O)N2CCCc3cc(CN4CCOCC4=O)c(C=O)nc32)ncc1C#N | 0.62
C#CCCNc1cc(NC(=O)N2CCCc3cc(CN4CCN(C)CC4=O)c(C=O)nc32)ncc1C#N | 0.33
[2H]C([2H])([2H])N1CCN(Cc2cc3c(nc2C=O)N(C(=O)Nc2cc(NCCC#C)c(C#N)cn2)CCC3)C(=O)C1 | 0.37

I = C#CCCCNc1cc(NC(=O)N2CCCc3cc(CN4CCN(C)CC4=O)c(C=O)nc32)ncc1C#N
II = C#CCNc1cc(NC(=O)N2CCCc3cc(CN4CCN(C)CC4=O)c(C=O)nc32)ncc1C#N
Query block: For the pair I and II , which entry has the numerically smaller recorded IC50? Let me know the label of the one you choose.
Result block: II
